molecular target: EGFR Δ19del/T790M/C797S (Homo sapiens, UniProt P00533, T790M/C797S, form not given); assay: EGFR Δ19del/T790M/C797S kinase test (mobility shift, Caliper EZ Reader); assay type: biochemical; conditions: kinase enzymatic activity, numeric values
Sequence (P00533 with tags, fused parts or gaps DEL746-750/T790M/C797S, form open): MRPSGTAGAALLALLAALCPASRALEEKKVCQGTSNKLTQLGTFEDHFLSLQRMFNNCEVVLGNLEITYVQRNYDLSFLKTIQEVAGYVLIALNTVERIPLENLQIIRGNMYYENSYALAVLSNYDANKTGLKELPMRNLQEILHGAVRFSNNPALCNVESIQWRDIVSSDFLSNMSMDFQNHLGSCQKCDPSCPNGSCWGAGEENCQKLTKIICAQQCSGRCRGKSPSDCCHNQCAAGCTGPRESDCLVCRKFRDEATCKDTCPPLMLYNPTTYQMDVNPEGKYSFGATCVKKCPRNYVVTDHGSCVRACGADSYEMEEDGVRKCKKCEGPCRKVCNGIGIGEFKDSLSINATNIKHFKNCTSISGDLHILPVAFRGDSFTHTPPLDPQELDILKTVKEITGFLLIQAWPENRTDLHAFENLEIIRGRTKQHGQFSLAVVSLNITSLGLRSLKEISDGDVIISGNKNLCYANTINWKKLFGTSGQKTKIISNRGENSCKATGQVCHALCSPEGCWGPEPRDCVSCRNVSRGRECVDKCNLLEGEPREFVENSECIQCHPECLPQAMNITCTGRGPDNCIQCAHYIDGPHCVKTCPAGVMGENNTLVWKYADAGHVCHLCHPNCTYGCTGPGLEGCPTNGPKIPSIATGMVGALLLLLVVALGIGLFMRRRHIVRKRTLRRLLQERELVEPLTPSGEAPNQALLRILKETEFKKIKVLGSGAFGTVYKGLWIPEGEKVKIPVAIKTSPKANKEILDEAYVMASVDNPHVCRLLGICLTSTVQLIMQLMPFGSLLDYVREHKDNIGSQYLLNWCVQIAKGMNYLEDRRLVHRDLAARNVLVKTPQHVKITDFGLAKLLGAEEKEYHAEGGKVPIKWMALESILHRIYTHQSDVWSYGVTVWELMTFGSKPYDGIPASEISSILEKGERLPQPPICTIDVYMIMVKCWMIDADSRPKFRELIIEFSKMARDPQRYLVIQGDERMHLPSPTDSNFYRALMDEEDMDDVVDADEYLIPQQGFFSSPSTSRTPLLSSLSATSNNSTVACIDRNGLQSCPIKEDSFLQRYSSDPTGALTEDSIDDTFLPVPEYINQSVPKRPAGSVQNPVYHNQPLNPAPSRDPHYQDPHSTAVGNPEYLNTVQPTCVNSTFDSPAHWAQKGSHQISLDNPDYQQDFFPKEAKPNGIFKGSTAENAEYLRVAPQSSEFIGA
pIC50: −log10 of the molar value.
MEASURED_QUANTITY: pIC50

{"columns": ["COMPOUND", "STUDY_SYSTEM", "pIC50"],
 "data": [
  ["CCn1cc(-c2cc(Nc3ncc(Br)c(Nc4ccc5nc(C6CC6)ccc5c4P(C)(C)=O)n3)c(OC)cc2N2CCOCC2)cn1", "EGFR Δ19del/T790M/C797S (Homo sapiens, UniProt P00533, T790M/C797S, form not given)", 7.77],
  ["COc1cc(N2CCN(C3CCCC3)CC2)c(-c2cnn(C)c2)cc1Nc1ncc(Br)c(Nc2ccc3nccnc3c2P(C)(C)=O)n1", "EGFR Δ19del/T790M/C797S (Homo sapiens, UniProt P00533, T790M/C797S, form not given)", 9.52],
  ["COc1cc(N2CCC(N3CCN(C)CC3)CC2)c(-c2cnn(C)c2)cc1Nc1ncc(Cl)c(Nc2ccc3nc(C4CC4)ccc3c2P(C)(C)=O)n1", "EGFR Δ19del/T790M/C797S (Homo sapiens, UniProt P00533, T790M/C797S, form not given)", 9.51],
  ["CCn1cc(-c2cc(Nc3ncc(Br)c(Nc4ccc(C)c(C)c4P(C)(C)=O)n3)c(OC)cc2N2CCC(N3CCCCC3)CC2)cn1", "EGFR Δ19del/T790M/C797S (Homo sapiens, UniProt P00533, T790M/C797S, form not given)", 9.70]
]}

P: CCn1cc(-c2cc(Nc3ncc(Br)c(Nc4ccc5nccnc5c4P(C)(C)=O)n3)c(OC)cc2N2CCC(N3CCN(C)CC3)CC2)cn1
Q: CCn1cc(-c2cc(Nc3nccc(Nc4ccc(C)c(C)c4P(C)(C)=O)n3)c(OC)cc2N2CCOCC2)cn1
Sort P and Q by pIC50 descending and give the first. Answer with the label corresponding to your selection. P

I: COc1cc(N2CCN3CCCCC3C2)c(-c2cnn(C)c2)cc1Nc1ncc(Cl)c(Nc2ccc3nccnc3c2P(C)(C)=O)n1 (stereo in doubt)
II: CCn1cc(-c2cc(Nc3ncc(Br)c(Nc4ccc(C)c(C)c4P(C)(C)=O)n3)c(OC)cc2N2CCC(N3CCN(C)CC3)CC2)cn1
Field: lower pIC50 | Options: I / II Pick one; state its label. II

###

target: Ba/F3-L858R/T790M/C797S (Homo sapiens, UniProt P00533, T790M/C797S/L858R, cells depend on it); experiment: Ba/F3-L858R/T790M/C797S cell proliferation assay (CellTiter Glo, 72 h); format: cell-based; settings: CTG, numeric values, read-out: BaF3 L858R/T790M/C797S IC50
Sequence (P00533 whole entry T790M/C797S/L858R): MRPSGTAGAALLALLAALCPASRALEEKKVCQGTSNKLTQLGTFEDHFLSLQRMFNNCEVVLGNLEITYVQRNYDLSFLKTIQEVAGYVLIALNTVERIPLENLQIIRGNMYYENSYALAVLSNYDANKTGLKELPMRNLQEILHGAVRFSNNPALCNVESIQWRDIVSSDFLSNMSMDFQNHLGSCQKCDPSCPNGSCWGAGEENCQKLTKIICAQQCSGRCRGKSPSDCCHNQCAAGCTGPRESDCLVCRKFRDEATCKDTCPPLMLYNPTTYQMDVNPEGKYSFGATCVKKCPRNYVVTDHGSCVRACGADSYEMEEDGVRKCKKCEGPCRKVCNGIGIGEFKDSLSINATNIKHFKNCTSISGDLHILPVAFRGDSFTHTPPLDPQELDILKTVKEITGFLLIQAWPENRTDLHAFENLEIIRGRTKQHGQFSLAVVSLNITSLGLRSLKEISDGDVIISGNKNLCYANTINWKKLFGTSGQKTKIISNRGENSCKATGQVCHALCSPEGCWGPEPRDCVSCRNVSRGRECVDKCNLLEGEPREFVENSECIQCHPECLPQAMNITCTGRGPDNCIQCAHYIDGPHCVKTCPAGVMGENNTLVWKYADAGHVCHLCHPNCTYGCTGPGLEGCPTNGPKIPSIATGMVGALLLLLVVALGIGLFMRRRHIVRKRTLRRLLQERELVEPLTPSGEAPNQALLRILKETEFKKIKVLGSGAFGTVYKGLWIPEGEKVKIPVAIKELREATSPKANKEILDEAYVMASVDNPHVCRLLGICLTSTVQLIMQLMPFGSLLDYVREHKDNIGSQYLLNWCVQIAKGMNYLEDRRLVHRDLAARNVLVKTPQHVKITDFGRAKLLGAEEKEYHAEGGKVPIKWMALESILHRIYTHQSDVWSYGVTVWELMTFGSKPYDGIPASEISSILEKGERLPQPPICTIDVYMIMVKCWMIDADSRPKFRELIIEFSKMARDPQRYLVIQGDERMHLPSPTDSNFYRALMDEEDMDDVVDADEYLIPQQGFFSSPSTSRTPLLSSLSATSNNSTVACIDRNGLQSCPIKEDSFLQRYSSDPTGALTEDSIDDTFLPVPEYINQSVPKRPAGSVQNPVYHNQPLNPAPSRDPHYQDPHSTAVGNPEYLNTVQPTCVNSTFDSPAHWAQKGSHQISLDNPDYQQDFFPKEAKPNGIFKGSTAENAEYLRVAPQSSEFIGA
MEASURED_QUANTITY: GI50 (nM)

Below, each entry is followed by its recorded GI50 result.
{"columns": ["SMILES_INPUT", "GI50 [nM]"],
 "data": [
  ["COc1cc(N2CCC(N(C)C)CC2)c(-c2cn[nH]c2)cc1Nc1ncc(Cl)c(Nc2ccc3nccnc3c2P(C)(C)=O)n1", 60.4],
  ["COc1cc(N2CCN(C3CCCC3)CC2)c(-c2cnn(C)c2)cc1Nc1ncc(Br)c(Nc2ccc3nc(C4CC4)ccc3c2P(C)(C)=O)n1", 8.7],
  ["COc1cc(N2CCN(C3CCCC3)CC2)c(-c2cnn(C)c2)cc1Nc1ncc(Br)c(Nc2ccc(C)c(C)c2P(C)(C)=O)n1", 2.8],
  ["CCn1cc(-c2cc(Nc3ncc(Br)c(Nc4ccc(C)c(C)c4P(C)(C)=O)n3)c(OC)cc2N2CCOCC2)cn1", 3.6]
]}

1: COc1cc(N2CCC(N(C)C)CC2)c(-c2cnn(C)c2)cc1Nc1ncc(Cl)c(Nc2ccc(C)c(C)c2P(C)(C)=O)n1
2: CCn1cc(-c2cc(Nc3ncc(Br)c(Nc4ccc(C)c(C)c4P(C)(C)=O)n3)c(OC)cc2N2CCC(N3CCCCC3)CC2)cn1
Compare GI50: is it lower for 1 or for 2 ? Provide the label of your selected option as the answer. 2
